tested on: SARS-CoV-2 (USA_WA1/2020); assay: Antiviral Activity from SARS-CoV-2 Infection (cytopathic effect, Cell Titer-Glo); assay type: cell-based; settings: Severe acute respiratory syndrome coronavirus 2, Vero C1008, 72 h, VeroE6 cells enriched for hACE2, MOI 0.002, 3-day incubation; tested alone or with P-gp inhibitor CP-100356 2 μM (table does not say which); read-out: Geometric Mean EC50
Measurement kind: EC50 (µM)

| Compound | Lt gt eq | Experimental value |
| --- | --- | --- |
| CCC([C@H](NC(=O)C(F)(F)F)C(=O)N1C[C@H]2[C@@H]([C@H]1C(=O)N[C@@H](C[C@@H]1CCNC1=O)C(=O)COc1ccc(F)cc1F)C2(C)C)C(F)(F)F (stereo in doubt) | = | 0.275 |
| COCC(=O)[C@H](C[C@@H]1CCNC1=O)NC(=O)C1C[C@H](C(C)(C)C)CCN1C(=O)[C@@H](NS(=O)(=O)C(F)(F)F)C(C)C (single isomer, unassigned) | > | 100 |
| CC(C)C[C@@H](C(=O)N1C[C@H]2[C@@H]([C@H]1C(=O)N[C@@H](C[C@@H]1CCNC1=O)C(=O)COc1cc(C(F)(F)F)nn1C)C2(C)C)N(C)C(C)C (single isomer, unassigned) | = | 0.133 |
